Test system: SK-MEL-28 melanoma
assay_procedure: NCI tumour cell line growth inhibition, 48 h
Please mark 1.0 if the recorded TGI is equal to or greater than 40 µM, and 0.0 if it falls below.

molecule	assigned_category
CCNNC(=O)[C@@H]1[C@H](c2cc(OC)c(OC)c(OC)c2)c2cc3c(cc2[C@H](O)[C@H]1CO)OCO3	1.0
CC(=O)/C=C1\CC(=O)Nc2ccccc2N1	1.0
CCCc1nnc2sc(COc3cc(Cl)c(OCc4nn5c(CCC)nnc5s4)cc3Cl)nn12	1.0
CCN(CC)CCOc1ccc(C(O)(Cc2ccc(OC)cc2)c2ccccc2)cc1 (stereo unspecified)	0.0
COC([C@@H](OC(=O)c1ccccc1)[C@H](OC(=O)c1ccccc1)C(O)COC(=O)c1ccccc1)n1cc(C)c(=O)[nH]c1=O (stereo partly specified)	1.0
O=C(c1ccc(O)c([N+](=O)[O-])c1)c1ccc(O)c([N+](=O)[O-])c1	1.0

Has CCN(CC)CCn1c2ccc(OC)cc2c2sc3cc(OC)ccc3c(=O)c21 a recorded TGI greater than or equal to 40 µM?
0.0

Given the entry CCOC(=O)C(C)(C)Oc1ccc2c(-c3ccc(Cl)cc3)c(-c3ccc(Cl)cc3)c(=O)oc2c1 , answer whether its TGI meets or surpasses 40 µM.
1.0

Item Cc1c(O)c(OC2OC(CO)C(O)C(O)C2O)cc2c1C=C[C@@H]1[C@@]2(C)C(=O)C[C@]2(C)[C@@H]([C@@](C)(O)C(=O)CCC(C)(C)O)[C@H](O)C[C@@]12C (stereo partly specified) with TGI of 40 µM or above?
1.0

Hi team, for COC(=O)NC(Cc1ccccc1)NC(C)=O (stereo unspecified) , is the recorded TGI at or above 40 µM?
1.0

# bool: TGI of Cc1ccc(S(=O)(=O)N/N=C2/CCC(C(C)(C)C)CC2Br)cc1 (stereo unspecified) >= 40 µM
1.0

Tell me whether TGI is at least 40 µM here: CCCN(CCC)C1CCc2c(ccc3cc[nH]c23)C1 (stereo unspecified)
1.0

hey, is TGI for this one >= 40 µM? O=C(CSc1nnc(-c2ccc(N=Cc3ccc(Cl)cc3)cc2)o1)Nc1ccc([N+](=O)[O-])cc1
0.0

Textbook exercise: given the entry Cc1ccc2c(C(=O)c3c(C)n(CCN4CCOCC4)c4ccccc34)cccc2c1 , state whether its TGI is greater than or equal to 40 µM.
1.0

###

Test system: MDA-N
assay_procedure: NCI tumour cell line growth inhibition, 48 h
I'd appreciate it if you could supply TGI values for the items below.

Examples with their reported TGI follow.
compound	TGI
O=C(C(Cl)=C(N1CCCCC1)N1CCCCC1)C(Cl)Cl	> 100 µM
COc1ccc([C@]23CCN4COC[C@@H]([C@H]42)C2(CC3)OCC(C)(C)CO2)cc1OC	> 100 µM
O=C1CS[C@@](CC(c2ccc(Cl)cc2)c2ccc(Cl)cc2)(c2ccc(Cl)cc2)N1	> 100 µM
Nc1cc(S(N)(=O)=O)ccc1SSc1ccc(S(N)(=O)=O)cc1N	> 100 µM
Cc1ccc(S(=O)(=O)n2ccc(-c3ccc4ccn(S(=O)(=O)c5ccc(C)cc5)c4c3)c2)cc1	> 100 µM
COC([C@@H](OC(=O)c1ccccc1)[C@H](OC(=O)c1ccccc1)C(O)COC(=O)c1ccccc1)n1cc(C)c(=O)[nH]c1=O (some centres not stated)	> 100 µM

Next compound, please.
Bench note: what TGI did CC(=O)OC(C)(C)CCC(=O)[C@](C)(O)[C@H]1[C@H](O)C[C@@]2(C)[C@@H]3CC=C4C(C)=C(OC5OC(CO)C(O)C(O)C5O)C(=O)C[C@@H]4[C@]3(C)C(=O)C[C@]12C (some centres not stated) show?
> 100 µM

###

Tested on: MDA-MB-231 breast
assay_procedure: NCI tumour cell line growth inhibition, 48 h
For each entry below, report its TGI value.
Numbers only, in µM.

Dear colleague, could you send me TGI for each of the items below? Thanks.
1. Cc1ccc(Nc2cc(C)nc(NCCCNc3ccnc4cc(Cl)ccc34)n2)cc1
2. NCCCN1CCN(CCCNc2nc3ccccc3c3[nH]c4ccccc4c23)CC1
3. CC(C)C[C@H](NC(=O)CCn1ccc2ncccc2c1=O)B(O)O

[2.87, 1.72, 46.6]

So what's the measured TGI for this one? COc1ccc(-c2cc(-c3cccc(NS(C)(=O)=O)c3)nc(N)c2C#N)cc1
5.14

###

Test system: HOP-62 NSCLC
assay_procedure: NCI tumour cell line growth inhibition, 48 h
attribute_measured: GI50

Use these answered entries as a reference point.
>>> df
                                   compound  attribute_measured  value_reported
0  Cc1ccc(Nc2cc(C)nc(NCCCNc3ccnc4cc(Cl)ccc34)n2)cc1                GI50         1.38 µM
1  O=c1cccccc1[O-].O=c1cccccc1[O-].O=c1cccccc1[O-].[Ce+3]                GI50         17.4 µM
2  FC(F)(F)c1cccc2c(SCCc3n[nH]c(=S)o3)ccnc12                GI50         94.2 µM
3  COc1ccc(Cn2cc3c(c2-c2cc(OC)c(OC)c(OC)c2)CCc2cnoc2-3)cc1N                GI50       0.0521 µM
4            NC(=O)c1ccccc1NC(=O)c1ccccc1Cl                GI50        > 100 µM
5  COc1ccc(-c2cc(-c3cccc(NS(C)(=O)=O)c3)nc(N)c2C#N)cc1                GI50       0.0689 µM
6  CCC1(NC(=O)c2cc(F)c(F)c(F)c2F)C(=O)NC(=O)N(C(C)C)C1=O (stereo not given)                GI50           58 µM
7  CSc1ccc(SC2c3ccc(C)cc3Oc3nc(N)c(C#N)c(N)c32)cc1 (stereo not given)                GI50         1.73 µM

For every listed record, write down its GI50.
1. N#Cc1ccc(Oc2cccc(Oc3ccccc3)c2)cc1C#N
2. NS(=O)(=O)c1ccc(-n2ncc3c(Nc4ccccc4)ncnc32)cc1

1: > 100 µM; 2: 16.7 µM

###

Test system: SK-OV-3 ovarian
assay_procedure: NCI tumour cell line growth inhibition, 48 h; in the data active = GI50 below about 0.43 µM; inactive = the rest
Parameter call: string, one of TRUE for active, FALSE for inactive

                                   compound  assigned_category
0  O=C(COc1cccc(/C=C2\Oc3ccc4ccccc4c3C2=O)c1)c1ccc(Cl)cc1              FALSE
1  O=C(N/N=C/c1ccc(Cl)cc1Cl)c1ccc2nc(-c3ccc(Cl)cc3)[nH]c2c1              FALSE
2  COc1cccc(C2SC(C)C(=O)N2CCc2cccs2)c1 (stereo not given)              FALSE
3  Cc1ccc(Nc2cc(C)nc(NCCCNc3ccnc4cc(Cl)ccc34)n2)cc1              FALSE
4  COc1ccc(-c2ccc(-c3ccc(C(=N)N)cn3)o2)cc1Cl              FALSE

# outcome recorded in this test, key = COc1c(Cl)ccc2c(-c3nc4cc(Cl)c(F)cc4s3)cc(=O)oc12
FALSE

Identify the outcome logged in this assay for the compound shown: CCC1(NC(=O)c2cc(F)c(F)c(F)c2F)C(=O)NC(=O)N(C(C)C)C1=O (stereo not given)
FALSE

###

Give measured TGI for each item. Keep answers brief.
Test system: SR leukemia
assay_procedure: NCI tumour cell line growth inhibition, 48 h
One number for each entry, in µM.

Previously resolved entries follow.
compound	attribute_measured	display_unit	value_reported
CC1=CCC[C@H]2[C@](C)(CC3=CC(=O)C(Sc4ccccc4)=CC3=O)[C@@H](C)CC[C@]12C	TGI	µM	48.3
Cc1ncc(C(=O)Nc2ccc(CN3CCN(C)CC3)c(C(F)(F)F)c2)cc1C#Cc1c(N)ncc2ccccc12	TGI	µM	1.04
COC(=O)[C@]12CC[C@@H](C)[C@H](C)[C@@H]1C1=CC[C@@H]3[C@@]4(C)C(C=O)=C[C@@](C)(COS(C)(=O)=O)C4[C@H](O)C[C@@]3(C)[C@]1(C)CC2 (some centres undefined)	TGI	µM	1.38

Could you now consider this next compound?
What value of TGI has been reported for the following compound? O=C(CNc1ccc2c(=S)c3ccccc3[nH]c2c1)Nc1ccccc1-c1ccccc1NC(=O)CNc1ccc2c(=S)c3ccccc3[nH]c2c1
41.1

###

Tested on: OVCAR-3 ovarian
assay_procedure: NCI tumour cell line growth inhibition, 48 h
attribute_measured: TGI (µM)
One number for each entry, in µM.

compound	TGI (µM)
NCCCN1CCN(CCCNc2nc3ccccc3c3[nH]c4ccccc4c23)CC1	4.58
COc1cc(C2CC(=O)Nc3c2ccc2ccccc32)cc(Br)c1OC (centres undefined)	0.809
C=C1C(OC/C=C/COC2O[C@@H]3O[C@@]4(C)CC[C@H]5[C@H](C)CC[C@@H](C2=C)[C@@]35OO4)O[C@@H]2O[C@@]3(C)CC[C@H]4[C@H](C)CC[C@@H]1[C@@]24OO3 (some centres undefined)	11.4

Now look at this one.
Returns the measured TGI for the input compound. Input: COC([C@@H](OC(=O)c1ccccc1)[C@H](OC(=O)c1ccccc1)C(O)COC(=O)c1ccccc1)n1cc(C)c(=O)[nH]c1=O (some centres undefined)
97.1

Cited source: PubChem BioAssay (NCI)
